System: Saccharomyces cerevisiae
Test: protein stability index of tFT-peptide fusion (C-terminal peptide) (PSI (0-1 scale)); higher = more stable (slower turnover)
Conditions: genetic background: wild type; temperature: 30 C
Reported protein stability index values follow for various sequences
MEASUREMENT KIND: protein stability index

> print(dat)
   chain.sequence  reported.result
1    ASHLGLGCLVVC            0.408
2    SCRCIIFVCCFW            0.237
3    WFSRCVSLGLCW            0.302

---

Reported protein stability index values follow for various sequences
Test system: Saccharomyces cerevisiae
Test: protein stability index of tFT-peptide fusion (C-terminal peptide) (PSI (0-1 scale)); higher = more stable (slower turnover)
Conditions: genetic background: wild type; temperature: 30 C
MEASUREMENT KIND: protein stability index

> print(dat)
                             chain.sequence         target.under.test  reported.result
1     KEDKKKKSSNCC [YPT32 C-terminal 12 aa]  Saccharomyces cerevisiae            0.732
2  YFFSSDRAIFNA [YGL041C-B C-terminal 12 aa]  Saccharomyces cerevisiae            0.703
3      EAAKYFREQYKN [MET6 C-terminal 12 aa]  Saccharomyces cerevisiae            0.717
4      NYQKNEPVEFLE [MIN9 C-terminal 12 aa]  Saccharomyces cerevisiae            0.656
5     VARYKMVSKRIW [EMP65 C-terminal 12 aa]  Saccharomyces cerevisiae            0.654

---

Tested on: Saccharomyces cerevisiae
Assay: protein stability index of tFT-peptide fusion (C-terminal peptide) (PSI (0-1 scale)); higher = more stable (slower turnover)
Conditions: genetic background: wild type; temperature: 30 C
Reported protein stability index values follow for various sequences
MEASUREMENT KIND: protein stability index

> print(dat)
   chain.sequence  reported.result
1    FRHPGSAGPPVA            0.713
2    GGGECLWNKQAV            0.687
3    QSHNDIRDGPPR            0.679
4    WHDCLYLWADLG            0.693
5    KNCKEQRKTIQI            0.713
6    LHVPPSPFPTPP            0.679

---

System: Saccharomyces cerevisiae
Test: protein stability index of tFT-peptide fusion (C-terminal peptide) (PSI (0-1 scale)); higher = more stable (slower turnover)
Settings: genetic background: cdc53-1; temperature: 37 C
Note: every record was labeled by where its protein stability index sits among bucket 1 (below 0.2), bucket 2 (0.2 to below 0.5), bucket 3 (0.5 or more)

> print(dat)
    chain.sequence         target.under.test  discrete.label
 1    VCMHIVLLAASP  Saccharomyces cerevisiae        bucket 2
 2    SPPSFPPLLLLS  Saccharomyces cerevisiae        bucket 3
 3    YFLFLRLVFLFF  Saccharomyces cerevisiae        bucket 2
 4    LLFGCLIRIGCS  Saccharomyces cerevisiae        bucket 2
 5    TKGIIKKINIIM  Saccharomyces cerevisiae        bucket 3
 6    VVVHFVLVCSTS  Saccharomyces cerevisiae        bucket 2
 7    WFSVRQLVFVSG  Saccharomyces cerevisiae        bucket 1
 8    FIFYYTVLLLCR  Saccharomyces cerevisiae        bucket 1
 9    SVVYSVWIYLLH  Saccharomyces cerevisiae        bucket 2
10    RYTWHGICIVTR  Saccharomyces cerevisiae        bucket 2

---

System: Saccharomyces cerevisiae
Experiment: protein stability index of tFT-peptide fusion (C-terminal peptide) (PSI (0-1 scale)); higher = more stable (slower turnover)
Settings: genetic background: wild type; temperature: 30 C
MEASUREMENT KIND: protein stability index

> print(dat)
   chain.sequence         measurement.kind  reported.result
1    RGPPGVPGSDML  protein stability index            0.673
2    FVKEGRVGTARS  protein stability index            0.687
3    ASHLGLGCLVVC  protein stability index            0.491
4    PRPPLPSLHLSP  protein stability index            0.679
5    RQCSGMIMKDVG  protein stability index             0.73
6    GCGGVWGRSEKY  protein stability index            0.684
7    FNPPPLLLPPPP  protein stability index            0.639
8    LPVDPPLGGHPT  protein stability index            0.655
9    FFDLSLYSLCLC  protein stability index            0.378

---

Test system: Saccharomyces cerevisiae
Experiment: protein stability index of tFT-peptide fusion (C-terminal peptide) (PSI (0-1 scale)); higher = more stable (slower turnover)
Conditions: genetic background: wild type; temperature: 30 C
Note: every record was labeled by where its protein stability index sits among Low (below 0.3), Medium (0.3 to below 0.4), High (0.4 or more)

> print(dat)
    chain.sequence  discrete.label
 1    WVFVVWFVFVVG             Low
 2    VCGYGFAVPCYT          Medium
 3    LGALFGRFWWYF             Low
 4    GLFLLWWLGWLV          Medium
 5    LCFGMVELMWIY          Medium
 6    VWLAWCIVGGLG          Medium
 7    LFFPLPGILSFF            High
 8    LYSVLWFCFPLV            High
 9    GFVLLCFCCRTW             Low
10    FNLTCLLISFFN            High
11    HTYSFRLLFIFL          Medium
12    IGSFYVLSFICQ            High
13    PVCRQVGVRLVA          Medium
14    NQIIRLIVGLLC             Low
15    LILIVVVAGSVG             Low
16    FSVLRLVIVSLL             Low
17    IFLKFGLLRSLL            High
18    SPPSFPPLLLLS          Medium
19    PFFLLAGITVAC             Low
20    DRRYIISLIYIL             Low
21    LCLLFLSFFFVC             Low

---

Test system: Saccharomyces cerevisiae
Assay: protein stability index of tFT-peptide fusion (C-terminal peptide) (PSI (0-1 scale)); higher = more stable (slower turnover)
Settings: genetic background: wild type; temperature: 30 C
# cutoff 0.6 applies to protein stability index; >= gives t, < gives f

> print(dat)
    chain.sequence  discrete.label
 1    FPPPPPSRSRPV               t
 2    MGVHKQQMRGQR               t
 3    HAPAPPLPTIYP               t
 4    PLTNKTHRPPDK               t
 5    RWALPALWAYAA               f
 6    VSPLFQDFSIIN               t
 7    WWWGGGRGGMGG               t
 8    VFKLRLPAVPHT               t
 9    RSPPAPPHSCPP               t
10    ITSITRFKVDSR               t
11    PQVGWFCNRLEV               t
12    PPPPGPPPLPLP               t
13    LPLSTLGPLARL               t
14    SELEADKRIKRK               t
15    HIFAQSFLNIRI               t
16    PAPSYHPVSPTA               t
17    TLSHPAHLKPMR               t
18    RGKATREAGKKR               t
19    DYSVIPSLALLP               f
20    GGVWWLGVVGGV               t
21    VGLVVVRTMGPC               t
22    NIPAAGCPRATA               t
23    IALPPPLLPPSL               t
24    TKGIIKKINIIM               f
25    SFRFFVSGFVVL               f
26    GVLFHIVLHFMV               f
27    AADNTGRNKGPQ               t
28    SPPSFPPLLLLS               f
29    KKRKKKEKKRKK               t
30    SGHRPPRVAVDS               t
31    LVLKLWNKFFVD               t
32    LPPFLSSLPSSP               t
33    AFWLFSGIARLA               f
34    TPPAEGTSQTKL               t
35    SFLVSALASSLA               t
36    VSLVLESFFGRV               t
37    VCILLVAWCLMG               f
38    TSVFPLFSPLRS               t
39    SPPSATTLRAPS               t
40    PDLGRQPGGSET               t
41    VRFLSLNVLFFC               f
42    VFRLLLFFVFVF               f
43    PVPRRPLLPLPP               t
44    PYAFPPPPPPPP               t
45    LAGSHSRTQGRT               t
46    SIIRHLFHPSST               t
47    GGLRGERAGTDG               t
48    YESIVLYPEMYL               t
49    PPSPHPSASTRP               t
50    AHPTLILTNKIA               f
51    RGFVVGGGGWLG               t
52    GCLFMQVSLFWR               f
53    RFEISNLVFIPR               t
54    TSPYTSFAHTSL               t
55    GPRQGVLEAASS               t
56    PSPPPVSPVVPP               t
57    PLPVLLLPGHLP               t
58    LPLPPPPAPPPL               t
59    VGGVGGLWGGAV               t
60    GGGGCVGEWWGR               t
61    GGGGLGTAVVGV               t
62    RVSSAAGGSIDL               t
63    PPLLPLPPPPSP               t
64    SCRCIIFVCCFW               f
65    GGAPAPPSRRPW               t
66    FFLGGGVGLVLV               f
67    LLHPFPPLCRHP               t
68    ILRSVIFMDACV               t
69    EYEDNRLDQHKV               t
70    GCGFYRTSRVPS               t
71    SPTPPPPAPPPP               t
